B1: PhoQ; a variant is named by its letters at X, in order, P23837 (parent)
chain: MKKLLRLFFPLSLRVRFLLATAAVVLVLSLAYGMVALIGYSVSFDKTTFRLLRGESNLFYTLAKWENNKLHVELPENIDKQSPTMTLIYDENGQLLWAQRDVPWLMKMIQPDWLKSNGFHEIEADVNDTSLLLSGDHSIQQQLQEVREDDDDAEMTHSVAVNVYPATSRMPKLTIVVVDTIPVELKSSYMVWSWFIYVLSANLLLVIPLLWVAAWWSLRPIEALAKEVRELEEHNRELLNPATTRELTSLVRNLNRLLKSERERYDKYRTTLTDLTHSLKTPLXXLQXXLRSLRSEKMSVSDAEPVMLEQISRISQQIGYYLHRASMRGGTLLSRELHPVAPLLDNLTSALNKVYQRKGVNISLDISPEISFVGEQNDFVEVMGNVLDNACKYCLEFVEISARQTDEHLYIVVEDDGPGIPLSKREVIFDRGQRVDTLRPGQGVGLAVAREITEQYEGKIVAGESMLGGARMEVIFGRQHSAPKDE

Variants of: B1
Test: enrichment ratio after two sorts for PhoP signalling (ratio (wild type AVST 3.29)); higher = more functional
Details: with PhoP (E. coli)
Over roughly 140,000 sequences, “enrichment ratio after two sorts for PhoP signalling” has its median near 0; the highest 2% begin near 11. The sample holds the highest values, similar sequences and a random draw of the others, so the mix is not that of the screen.
Record Met whenever enrichment ratio is at 10 or higher; record Not met when lower.

Record excerpt, results attached:
Residue Change	Class Assignment
GILN	Met
QVDN	Met

-- ask Dear colleague, could you confirm whether `KYQL` has enrichment ratio at or above 10?
-- reply Not met

-- ask Is reported enrichment ratio greater than or equal to 10 here: `GNCS`
-- reply Not met

-- ask Determine whether this variant has enrichment ratio no lower than 10: `GNCG`
-- reply Not met
